experiment: inhibitors of Chlamydomonas gravitaxis, primary screen, whole organism, Chlamydomonas reinhardtii, WT vs cilia-less mutant, absorbance, 96-well (AID 463189); settings: OD600 absorbance, 2 days, at 10 µM, active compounds read high;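 further: 0% = wild type cc124 cells in DMSO and 100% = ciliumless bld1 mutant cells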
Answer each item with its documented inhibition.
Answers are plain numbers, in %.

Some compounds with known inhibition results, for comparison:
INSERT INTO results (compound, unit_annotation, endpoint_result) VALUES
  ('O=S(CCc1ccncc1)Cc1ccccc1 (configuration not stated)', '%', -11.4),
  ('CC(=O)OCC(=O)[C@H]1CC[C@H]2[C@@H]3CCC4=CC(=O)CC[C@]4(C)[C@H]3CC[C@]12C', '%', 6.25),
  ('CCCSc1nc(C)c(CC(=O)OCC)c(=O)[nH]1', '%', 6.42),
  ('CC1(C)CC(=O)C2=C(C1)N(CC1CCCO1)C(=O)C2(O)C(F)(F)F (configuration not stated)', '%', 29.7),
  ('O=c1c2c3c(sc2n2cnnc2n1Cc1ccccc1)CN(Cc1ccccc1)CC3', '%', 22.4);

Lab note: each compound below needs its inhibition filled in.
1. CCOC(=O)c1sc2c(c1C)c(=O)c(C(=O)OCC)cn2CC
2. CCOc1cccc(-c2nnc3sc(COc4ccccc4)nn23)c1

[A]
1. -0.239
2. 17.6
